Reference source: paper PMC6106897

- PROCEDURE SUMMARY: Transport experiment in Caco-2 monolayers
- Assay type: in vitro ADME, human
- CONDITION CONTEXT: human, Caco-2
TEST READOUT: Papp at 150 min, 100 μM (×10⁻⁶ cm/s)
Please state the figure in ×10⁻⁶ cm/s; there is no need to write the unit.

Query C[C@@H]1O[C@@H](OC[C@H]2O[C@@H](Oc3c(-c4ccc(O)c(O)c4)oc4cc(O)cc(O)c4c3=O)[C@H](O)[C@@H](O)[C@@H]2O)[C@H](O)[C@H](O)[C@H]1O yields Papp at 150 min, 100 μM of 0.06

====

- PROCEDURE SUMMARY: 1-octanol/water partition coefficient (logP)
- Assay type: physicochemical
TEST READOUT: logP at 30 min
Just the number.

Lab note: measured logP at 30 min of CCC(=O)OCCOc1cc(O)c2c(=O)c(OC3OC(COC4OC(C)C(O)C(O)C4O)C(O)C(O)C3O)c(-c3ccc(OCCOC(=O)CC)c(OCCO)c3)oc2c1 (centres unmarked) [TDE] was 1.51
